As shown below, each of these molecules has a reported pIC50 value.
Target: Serotonin (5-HT) uptake (Rattus norvegicus, UniProt P31652)
Construct: The suspension was used as a crude synaptosome fraction; from tissue; host or cells: rat (male Wistar) frontal cortex, crude synaptosome fraction
Sequence (P31652 whole entry): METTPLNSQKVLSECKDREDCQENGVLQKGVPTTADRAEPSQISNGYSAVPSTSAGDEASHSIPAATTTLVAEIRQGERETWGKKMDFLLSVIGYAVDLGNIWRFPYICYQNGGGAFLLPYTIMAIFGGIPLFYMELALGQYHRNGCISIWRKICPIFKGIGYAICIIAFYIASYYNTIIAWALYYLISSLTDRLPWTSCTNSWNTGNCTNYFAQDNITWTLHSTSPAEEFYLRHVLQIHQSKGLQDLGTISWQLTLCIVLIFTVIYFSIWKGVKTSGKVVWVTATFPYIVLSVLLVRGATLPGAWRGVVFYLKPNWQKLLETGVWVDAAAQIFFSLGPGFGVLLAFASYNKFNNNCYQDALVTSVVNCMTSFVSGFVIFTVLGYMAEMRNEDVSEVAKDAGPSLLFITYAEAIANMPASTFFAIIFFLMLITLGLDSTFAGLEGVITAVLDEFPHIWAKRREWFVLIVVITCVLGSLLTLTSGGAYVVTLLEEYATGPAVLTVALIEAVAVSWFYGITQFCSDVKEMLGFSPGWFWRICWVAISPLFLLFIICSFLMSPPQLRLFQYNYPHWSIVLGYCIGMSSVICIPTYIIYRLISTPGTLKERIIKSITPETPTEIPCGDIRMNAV
Experiment: Serotonin (5-HT) uptake inhibitory activity using rat brain synaptosome (frontal cortex)
Format: biochemical
Conditions: tritium-labeled 5-HT 8 nM, 37° C. 10 minutes, read-out: 50% Inhibitory concentration
# pIC50: negative log10 of molar concentration; output just the value

Reference set (4 entries):
molecule="CC1(C)CN(c2ccc3cc(O)ccc3c2)[C@H]2CCCC[C@@H]2N1 [Example 850]" val=8.14
molecule="C[C@@H]1CN(c2ccc3sccc3c2)[C@H]2CCCC[C@@H]2N1 [Example 1121]" val=8.07
molecule="CC1(C)CN(c2ccc3sccc3c2)C2COCC2N1 (centres unmarked) [Example 8]" val=8.62
molecule="CC1(C)CN(c2ccc3sccc3c2)[C@H]2CCC[C@@H]2N1 (relative stereo) [Example 13]" val=8.29

// next entry
Form field pIC50 for item CC1(C)CN(c2ccc(F)c3occc23)[C@@H]2CCCC[C@@H]2N1 [Example 77] on Serotonin (5-HT) uptake (Rattus norvegicus, UniProt P31652): 9.10

* * *

Biological target: Norepinephrine (NE) uptake (Rattus norvegicus, UniProt Q9WTR4)
Experiment: Norepinephrine (NE) uptake inhibitory activity using rat brain synaptosome (hippocampus)
Type: biochemical
Conditions: read-out: 50% inhibitory concentration, tritium-labeled NE 12 nM, 37° C. ten minutes
metric: IC50 (nM)
The response must be a number in nM with no trailing unit.

Record C[C@@H]1CN(c2ccc(OC(F)F)c(F)c2)[C@H]2CCCC[C@@H]2N1 [Example 1534] , field IC50: 4

Noted for CC1(C)CN(c2cc(F)cc3ccsc23)[C@@H]2CCCC[C@@H]2N1 [Example 621] : its IC50 reads 0.7

The compound identified as CC1(C)CN(c2cccc3ncccc23)[C@H]2CCCC[C@H]2N1 [Example 120] registered its IC50 at 9.2

* * *

Target: Norepinephrine (NE) uptake (Rattus norvegicus, UniProt Q9WTR4)
Assay: Norepinephrine (NE) uptake inhibitory activity using rat brain synaptosome (hippocampus)
Format: biochemical
Settings: tritium-labeled NE 12 nM, 37° C. ten minutes, read-out: 50% inhibitory concentration
Method: Measurement of Norepinephrine (NE) Uptake Inhibitory Activity of Test Compound Using Rat Brain Synaptosome Male Wistar rats were decapitated, and their brains were removed and dissected to remove the hippocampus. The separated hippocampus was placed in a 20-fold weight of a 0.32 molarity (M) sucrose solution and homogenized with a potter homogenizer. The homogenate was centrifuged at 1000 g at 4° C. for 10 minutes, and the supernatant was further centrifuged at 20000 g at 4° C. for 20 minutes. […]
metric: IC50 (nM)
Please give a number only; it is taken to be in nM.

Recorded IC50, per entry:
molecule="CN1[C@@H]2CCCC[C@H]2N(c2ccc(Cl)c(Cl)c2)CC1(C)C [Example 273]" value_units=nM val=6.8
molecule="OCCN1CCN(c2ccc(Cl)c(Cl)c2)[C@H]2CCCC[C@@H]21 (relative stereo) [Example 300]" value_units=nM val=9.9

Please look at the following molecule next.
Data point: CC1(C)CN(c2ccc(F)c3[nH]ccc23)[C@H]2CCCC[C@H]2N1 [Example 780] ; IC50 = 0.6
